Source: PubChem BioAssay (NCI)

Tested on: OVCAR-3 ovarian
Experiment: NCI tumour cell line growth inhibition, 48 h
reported_metric: TGI

>>> df
                                    molecule  target_or_system  measured_value
 0                        Oc1cccnc1CN1CCCCC1   OVCAR-3 ovarian        > 100 µM
 1  COC1=C(C)C(=O)c2c(c(COC(N)=O)c3n2CC2C3N2C)C1=O (stereo not given)   OVCAR-3 ovarian       0.0987 µM
 2  COc1ccc(Cn2cc3c(c2-c2ccccc2)CC(C)(C)c2cnoc2-3)cc1   OVCAR-3 ovarian         3.28 µM
 3       O=C(NI1OC(=O)c2ccccc21)c1ccc(Cl)cc1   OVCAR-3 ovarian        > 100 µM
 4  NC(N)=NCCC[C@H](N)C(=O)NCC(=O)N[C@@H](CC(=O)O)c1ncc(NC(=O)C(F)(F)F)o1   OVCAR-3 ovarian         > 25 µM
 5  N#CCN1C(=O)c2cccc3cc([N+](=O)[O-])cc(c23)C1=O   OVCAR-3 ovarian         88.6 µM
 6  CON(C)C(=O)CNC(=O)OCC1c2ccccc2-c2ccccc21   OVCAR-3 ovarian        > 100 µM
 7          COc1ccc(Nc2c3ccccc3nc3occc23)cc1   OVCAR-3 ovarian          4.2 µM
 8        COc1ccc2ccccc2c1/C=C/C(=O)c1ccccc1   OVCAR-3 ovarian         7.23 µM
 9  O=C(c1ccc(N=Cc2ccccc2O)cc1)c1ccc(N=Cc2ccccc2O)cc1   OVCAR-3 ovarian        > 100 µM
10  COc1cc(/C=C2/C[C@H]3[C@@H]4CC=C5C[C@@H](O)CC[C@]5(C)[C@H]4CC[C@]3(C)NC2=O)cc(OC)c1OC   OVCAR-3 ovarian        > 100 µM
11  Cc1cccc(NC(=O)C(=O)C(C(=O)c2ccc3ccccc3c2)C2OC(=O)c3ccccc32)c1C (stereo not given)   OVCAR-3 ovarian         50.1 µM
12    O=C1CCC(c2ccc(Cl)cc2)=NN1c1nsc2ccccc12   OVCAR-3 ovarian         44.7 µM
13  CCN(CC)C(=S)N/N=C(/C)c1cccc(/C(C)=N\NC(=S)N(CC)CC)n1   OVCAR-3 ovarian         7.44 µM
14  Cc1cc(Cl)ccc1N=C1NC(=O)C(CC(=O)Nc2ccc([N+](=O)[O-])cc2[N+](=O)[O-])S1 (stereo not given)   OVCAR-3 ovarian         73.8 µM
15  O=C1CC(=Nc2ccc(Cl)cc2)C(c2ccccc2)N1c1ccccc1 (stereo not given)   OVCAR-3 ovarian         14.5 µM
16                  CC12C(=O)CC(CC1=O)C2(C)C   OVCAR-3 ovarian        > 100 µM
17  Cc1ccc([N+](=O)[O-])cc1S(=O)(=O)Nc1ccc(C2=NNC(c3ccccc3)C2)cc1 (stereo not given)   OVCAR-3 ovarian         20.4 µM
18  O=C(Cc1ccccc1)NN1C(=O)C(Cl)C1c1cc(Br)ccc1O (stereo not given)   OVCAR-3 ovarian        > 100 µM
19  Cc1ccc(C(=O)CN(/C=C/C(=O)C(F)(F)F)c2ccc(S(N)(=O)=O)cc2)cc1   OVCAR-3 ovarian        > 100 µM
20  CCCCCCCC/C=C/CCCCCCCC(=O)OC[C@H]1O[C@@H](n2ccc(N)nc2=O)C(F)(F)[C@@H]1O   OVCAR-3 ovarian        > 100 µM
21  Cc1cn(C2CC(N(O)Cc3ccccc3)C(CO[Si](C)(C)C(C)(C)C)O2)c(=O)[nH]c1=O (stereo not given)   OVCAR-3 ovarian           32 µM
22              Cc1ccn2c(c1)nc1nc3ccccc3nc12   OVCAR-3 ovarian        > 100 µM
23  O=C1C=CC[C@H]2O[C@@H](COC(=O)Cc3ccccc3)C[C@H]2O1   OVCAR-3 ovarian        > 100 µM
24  NC(Cc1ccccc1)C(=O)N[C@H]1c2ccsc2/C(=N/O)[C@H]1O (stereo not given in full)   OVCAR-3 ovarian        > 100 µM
25     O=c1cc(-c2ccc(F)cc2)[nH]c2ncc(Cl)cc12   OVCAR-3 ovarian       > 70.5 µM
26  Cc1cccc(N2CCN(C(=S)c3ccc4c(c3)OCO4)CC2)c1   OVCAR-3 ovarian         2.87 µM
27  Cc1ccc2c(c1)C(C(=O)N[C@@H]1C(=O)N3[C@@H]1SC(C)(C)[C@@H]3C(=O)O)OCCC2 (stereo not given in full)   OVCAR-3 ovarian        > 100 µM
28  O=C1C(CN2CCCCC2)CCC1CN1CCCCC1 (stereo not given)   OVCAR-3 ovarian         26.5 µM
29  Cc1ccc(C2=C(c3ccccc3)C(Br)(c3ccc(C)cc3)C(c3ccccc3)=C2c2ccc(C)cc2)cc1   OVCAR-3 ovarian        > 100 µM
30            Nc1cc2[nH]c(=O)c(=O)[nH]c2cc1N   OVCAR-3 ovarian        > 100 µM
31  CN(C)C(=O)c1cc2cnc(Nc3ccc(-c4csc5c(=S)cc(N6CCOCC6)oc45)cc3)nc2n1C1CCCC1   OVCAR-3 ovarian         > 50 µM
32      Cc1nc(N)sc1C(=O)/C=C\c1ccc2c(c1)OCO2   OVCAR-3 ovarian        > 100 µM
33  CCOC(=O)C1=C(C)N(NC(=O)Nc2ccccc2)C(=O)C1=P(c1ccccc1)(c1ccccc1)c1ccccc1   OVCAR-3 ovarian        > 100 µM
34  COc1cc(Cn2c3c(c4cc(O)ccc42)Cc2ccccc2C3=O)cc(OC)c1   OVCAR-3 ovarian        > 100 µM
